Reference source: patent US11098059B2

system under test: PRMT5 (Homo sapiens (Human), UniProt O14744)
Sequence (O14744 whole entry): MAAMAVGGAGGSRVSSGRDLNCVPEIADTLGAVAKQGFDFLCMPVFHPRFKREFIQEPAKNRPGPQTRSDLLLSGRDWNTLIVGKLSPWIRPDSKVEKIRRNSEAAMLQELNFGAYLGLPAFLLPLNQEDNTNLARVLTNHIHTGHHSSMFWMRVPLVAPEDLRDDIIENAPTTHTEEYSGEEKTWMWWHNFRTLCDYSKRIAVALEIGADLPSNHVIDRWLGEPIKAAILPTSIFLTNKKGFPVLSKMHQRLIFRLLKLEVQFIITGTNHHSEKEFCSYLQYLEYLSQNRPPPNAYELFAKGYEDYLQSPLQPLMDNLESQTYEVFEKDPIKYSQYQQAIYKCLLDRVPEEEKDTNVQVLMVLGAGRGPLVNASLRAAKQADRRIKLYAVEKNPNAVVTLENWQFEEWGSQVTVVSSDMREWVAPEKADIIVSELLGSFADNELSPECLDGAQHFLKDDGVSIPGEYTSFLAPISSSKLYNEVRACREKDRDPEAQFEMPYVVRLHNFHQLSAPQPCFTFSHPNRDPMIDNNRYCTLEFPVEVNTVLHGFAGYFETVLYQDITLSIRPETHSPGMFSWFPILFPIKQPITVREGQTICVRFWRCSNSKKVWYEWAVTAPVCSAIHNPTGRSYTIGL
Sequence (Q9BQA1 whole entry partner): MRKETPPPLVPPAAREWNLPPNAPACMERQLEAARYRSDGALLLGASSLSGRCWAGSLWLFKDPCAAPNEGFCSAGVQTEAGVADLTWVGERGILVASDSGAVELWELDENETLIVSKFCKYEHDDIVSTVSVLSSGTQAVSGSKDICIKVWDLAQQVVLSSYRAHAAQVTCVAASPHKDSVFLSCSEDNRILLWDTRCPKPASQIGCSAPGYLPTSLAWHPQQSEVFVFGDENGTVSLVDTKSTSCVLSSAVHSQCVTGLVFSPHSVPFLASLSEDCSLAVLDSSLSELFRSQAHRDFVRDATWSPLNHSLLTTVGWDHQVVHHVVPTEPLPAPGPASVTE
test description: PRMT5 Cell Target Engagement (TE) Assay
Type: cell-based
measurement parameters: MCF-7 cells, treated 3 days, nuclear SDMA by high content imaging; top concentration 10000 nM; read-out: TE Assay EC50
pEC50: −log10 of the molar value.
Response key: class 1 means pEC50 >= 7; class 0 means pEC50 < 7.

Solved entries:
In [3]: df
Out[3]:
                                   compound  answer_label
0  O=C1c2ccc(-c3ncnn3C3CC3)cc2C2(CCC2)CN1C[C@@H](O)[C@@H]1Cc2ccccc2CN1 [Example 11]       class 1
1  CO[C@H]1C[C@H]2CC[C@@H](C1)N2C(=O)c1ccc2c(c1)C(C)(C)CN(C[C@H](O)[C@@H]1Cc3ccccc3CN1)C2=O [Example 24]       class 0
2  CC[C@H]1CN(C[C@@H](O)[C@@H]2Cc3ccccc3CN2)C(=O)c2ccc(-c3ncnn3C)cc21 (single isomer, unassigned) [Example 5]       class 0

For the next question, use this compound.
Task item: Decide: is the reported value of pEC50 for O=C1c2ccc(C(=O)N3C4CCC3COC4)cc2CCN1CC(O)[C@@H]1Cc2ccccc2CN1 (some centres unmarked) [Example 30] equal to or greater than 7?
Reply: class 0
